assay-name: Human serum binding by ultrafiltration
Format: in vitro ADME
Can you tell me HSB, human serum binding for the items I'm about to list?
Your answer should be a plain number; it is taken to be in %.

The recorded HSB, human serum binding for entry Nc1nc(/C(=N/O)C(=O)N[C@@H]2C(=O)N3C(C(=O)O)=C(Sc4ccncc4CSCCNC=O)CS[C@H]23)c(Cl)s1 [Compound 27] equals 94

The recorded HSB, human serum binding for entry NC(=O)CSCc1cnccc1SC1=C(C(=O)O)N2C(=O)[C@@H](NC(=O)/C(=N\O)c3nc(N)sc3Cl)[C@H]2SC1 [Compound 22] equals 94

The recorded HSB, human serum binding for entry NC(=O)NCCSCc1cnccc1SC1=C(C(=O)O)N2C(=O)[C@@H](NC(=O)/C(=N\O)c3nc(N)sc3Cl)[C@H]2SC1 [Compound 30] equals 96

* * *

assay-name: Human serum binding by ultrafiltration
Type: in vitro ADME
test-context: pooled human serum, ultrafiltration, 10 minutes at 37° C.
measurement-label: HSB, human serum binding (%)
Your answer should be a plain number; it is taken to be in %.

The recorded HSB, human serum binding for entry Nc1nnc(SC2=C(C(=O)O)N3C(=O)[C@@H](NC(=O)C(=NOCCF)c4nc(N)sc4Cl)C3SC2)s1 (stereo partly shown) [Compound 42] equals 65

The recorded HSB, human serum binding for entry Nc1nc(C(=NO)C(=O)N[C@@H]2C(=O)N3C(C(=O)O)=C(Sc4nnc(N)s4)CSC23)ns1 (stereo partly shown) [Compound 37] equals 79

The recorded HSB, human serum binding for entry Nc1nc(C(=NO)C(=O)N[C@@H]2C(=O)N3C(C(=O)O)=C(Sc4nnc[nH]4)CSC23)c(Cl)s1 (stereo partly shown) [Compound 40] equals 92

The recorded HSB, human serum binding for entry Nc1nnc(SC2=C(C(=O)O)N3C(=O)[C@@H](NC(=O)C(=NO)c4nc(N)sc4Cl)C3SC2)s1 (stereo partly shown) [Compound 36] equals 90

The recorded HSB, human serum binding for entry Nc1nc(/C(=N/O)C(=O)N[C@@H]2C(=O)N3C(C(=O)O)=C(Sc4ccncc4)CS[C@H]23)c(Cl)s1 [Compound 21] equals 98

The recorded HSB, human serum binding for entry NCCSCc1cnccc1SC1=C(C(=O)O)N2C(=O)[C@@H](NC(=O)/C(=N\O)c3nc(N)sc3Cl)[C@H]2SC1 [RWJ 54428, reference compound] equals 84

The recorded HSB, human serum binding for entry Nc1nc(C(=NO)C(=O)N[C@@H]2C(=O)N3C(C(=O)O)=C(Sc4nncs4)CSC23)c(Cl)s1 (stereo partly shown) [Compound 41] equals 91

* * *

Can you tell me log10(MIC) for the items I'm about to list?
Test system: Enterococcus faecium ATCC 35667
assay-name: Broth microdilution MIC, E. faecium ATCC 35667
Type: cell-based
test-context: ATCC35667; Enterococcus faecium ATCC 35667; read-out: MIC E. f. 35667
The common logarithm of MIC in µg/mL is what is listed.

The recorded log10(MIC) for entry Nc1nc(C(=NO)C(=O)N[C@@H]2C(=O)N3C(C(=O)O)=C(Sc4cnns4)CSC23)ns1 (stereo partly drawn) equals 0.30

The recorded log10(MIC) for entry Nc1nnc(SC2=C(C(=O)O)N3C(=O)[C@@H](NC(=O)C(=NOCCF)c4nc(N)sc4Cl)C3SC2)s1 (stereo partly drawn) equals 0.60

The recorded log10(MIC) for entry C[C@@H](O)[C@H]1C(=O)N2C(C(=O)O)=C(SCCN=CN)C[C@H]12 [Imipenem, reference compound] equals 0.60

The recorded log10(MIC) for entry Nc1nc(C(=NO)C(=O)N[C@@H]2C(=O)N3C(C(=O)O)=C(Sc4nnc[nH]4)CSC23)c(Cl)s1 (stereo partly drawn) equals 0.60

The recorded log10(MIC) for entry CCC(CC)O/N=C(\C(=O)N[C@@H]1C(=O)N2C(C(=O)O)=C(Sc3ccnn3-c3ccccc3)CS[C@H]12)c1csc(N)n1 equals 0.60

The recorded log10(MIC) for entry Nc1nc(/C(=N/OC2CCCC2)C(=O)N[C@@H]2C(=O)N3C(C(=O)O)=C(Sc4ccnn4-c4ccccc4)CS[C@H]23)cs1 equals 0.60

The recorded log10(MIC) for entry Nc1nc(/C(=N/OCCF)C(=O)N[C@@H]2C(=O)N3C(C(=O)O)=C(Sc4ccnn4-c4ccccc4)CS[C@H]23)cs1 equals 1.20

The recorded log10(MIC) for entry C=CCO/N=C(\C(=O)N[C@@H]1C(=O)N2C(C(=O)O)=C(Sc3ccnn3-c3ccccc3)CS[C@H]12)c1csc(N)n1 equals 1.51

The recorded log10(MIC) for entry Nc1nc(C(=NO)C(=O)N[C@@H]2C(=O)N3C(C(=O)O)=C(Sc4nc(Cl)ns4)CSC23)c(Cl)s1 (stereo partly drawn) equals 0.00

The recorded log10(MIC) for entry Nc1nc(/C(=N/OCCF)C(=O)N[C@@H]2C(=O)N3C(C(=O)O)=C(Sc4ccnn4-c4ccccc4)CS[C@H]23)c(Cl)s1 equals 0.60

The recorded log10(MIC) for entry CSc1nnc(SC2=C(C(=O)O)N3C(=O)[C@@H](NC(=O)C(=NO)c4nc(N)sc4Cl)C3SC2)s1 (stereo partly drawn) equals 0.00

The recorded log10(MIC) for entry Nc1nc(C(=NO)C(=O)N[C@@H]2C(=O)N3C(C(=O)O)=C(Sc4nncs4)CSC23)ns1 (stereo partly drawn) equals 0.30

The recorded log10(MIC) for entry Nc1nsc(SC2=C(C(=O)O)N3C(=O)[C@@H](NC(=O)C(=NO)c4nc(N)sc4Cl)C3SC2)n1 (stereo partly drawn) equals -0.30

The recorded log10(MIC) for entry CC(C)(C)O/N=C(\C(=O)N[C@@H]1C(=O)N2C(C(=O)O)=C(Sc3ccnn3-c3ccccc3)CS[C@H]12)c1csc(N)n1 equals 1.20

The recorded log10(MIC) for entry Nc1nc(C(=NO)C(=O)N[C@@H]2C(=O)N3C(C(=O)O)=C(Sc4nnc(N)s4)CSC23)ns1 (stereo partly drawn) equals 0.00

The recorded log10(MIC) for entry Nc1nc(CC(=O)N[C@@H]2C(=O)N3C(C(=O)O)=C(Sc4nnc(N)s4)CSC23)cs1 (stereo partly drawn) equals 0.60

The recorded log10(MIC) for entry Nc1nc(C(=NO)C(=O)N[C@@H]2C(=O)N3C(C(=O)O)=C(Sc4nnco4)CSC23)c(Cl)s1 (stereo partly drawn) equals 0.00

The recorded log10(MIC) for entry Nc1nc(/C(=N/O)C(=O)N[C@@H]2C(=O)N3C(C(=O)O)=C(Sc4ccnn4-c4ccccc4)CS[C@H]23)cs1 equals 0.90

The recorded log10(MIC) for entry Cc1nnsc1SC1=C(C(=O)O)N2C(=O)[C@@H](NC(=O)C(=NO)c3nc(N)sc3Cl)C2SC1 (stereo partly drawn) equals 0.30

The recorded log10(MIC) for entry Cc1noc(SC2=C(C(=O)O)N3C(=O)[C@@H](NC(=O)C(=NO)c4nc(N)sc4Cl)C3SC2)n1 (stereo partly drawn) equals -0.30

The recorded log10(MIC) for entry Nc1nc(C(=NO)C(=O)N[C@@H]2C(=O)N3C(C(=O)O)=C(Sc4cnns4)CSC23)c(Cl)s1 (stereo partly drawn) equals -0.30

The recorded log10(MIC) for entry Nc1nc(C(=NO)C(=O)N[C@@H]2C(=O)N3C(C(=O)O)=C(Sc4nncs4)CSC23)c(Cl)s1 (stereo partly drawn) equals -0.30

The recorded log10(MIC) for entry Nc1nc(/C(=N/OCC2CC2)C(=O)N[C@@H]2C(=O)N3C(C(=O)O)=C(Sc4ccnn4-c4ccccc4)CS[C@H]23)cs1 equals 1.20

The recorded log10(MIC) for entry Nc1nc(C(=NO)C(=O)N[C@@H]2C(=O)N3C(C(=O)O)=C(Sc4nnc(N)s4)CSC23)cs1 (stereo partly drawn) equals 0.00

The recorded log10(MIC) for entry Nc1nc(/C(=N/O)C(=O)N[C@@H]2C(=O)N3C(C(=O)O)=C(Sc4ccncc4)CS[C@H]23)c(Cl)s1 equals 0.30

The recorded log10(MIC) for entry Nc1nc(/C(=N/O)C(=O)N[C@@H]2C(=O)N3C(C(=O)O)=C(Sc4ccncc4CO)CS[C@H]23)c(Cl)s1 equals 0.00

The recorded log10(MIC) for entry Nc1nnc(SC2=C(C(=O)O)N3C(=O)[C@@H](NC(=O)C(=NO)c4nc(N)sc4Cl)C3SC2)s1 (stereo partly drawn) equals 0.00
